B1: glmS ribozyme (parent)
chain: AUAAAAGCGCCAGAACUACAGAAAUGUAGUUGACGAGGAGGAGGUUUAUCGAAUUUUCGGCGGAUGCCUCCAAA

Variants of: B1
ASSAY REMARKS: self-cleavage kobs at 2500 uM GlcN6P; higher = faster cleavage; RNA array
REPORTED CONDITIONS: with glucosamine-6-phosphate
Fewer inactive variants are shown than the library holds.
Mark 0 for self-cleavage kobs at 2500 uM GlcN6P values under 0.0003 s⁻¹, and 1 for everything at or above.

> print(dat)
                              residue.codes  qualitative.label
1  AUAAAAGCGCCUGAACUACAGAAAUGUAGUUGACGAGGAGGAGUUUUAUCGAAUUUUCGGCGGAUGUCUCCAAA [A12U G44U C67U]                  1
2  AUAAAAGGGCCGGAACUACAGAAAUGUAGUUGACGAGGAGGAGGUUUAUCGAAGUUUCGGCGGCAGCCUCGAAA [C8G A12G U54G A64C U65A C71G]                  0
3  AUAAAAGCGCCAGAAGUACAGAAAUGUAGUUGACGAGGAGUAGGUUUAUGGAAUUUUCGGCGGAUGCCUCCAAA [C16G G41U C50G]                  0
4  AUAAAAGCGCCAGUACUACAGAAAUGUAGUUGACGAGGAGGAGGUUUAUCGAAUUUUCGGCGGAUGCCGCCAAA [A14U U69G]                  0
5  AUAAAAGCGCCAGAACUACAGAAAUGUAGUUGACGAGGAGGAGGUUUAUCGAAUUUUCGGCGGAUUCCCCCAAA [G66U U69C]                  1
6  AUAAAAGCGCCAGAACUACAGAAAUGUAGUUGACGAGGAGGCGGUUUAUCGAAUUUUCGGCGGAUCCCUCCAAA [A42C G66C]                  0

Query string: Item AUAAAAGCGCCAGACCUACAGAAAUGUAGUUGACGAGGAGGAGGCUUAUCGAAUUUUCGGCGGAUGCCUCCAAA [A15C U45C] with self-cleavage kobs at 2500 uM GlcN6P of 0.0003 s⁻¹ or above?
Result string: 0

Query string: Decide: self-cleavage kobs at 2500 uM GlcN6P of AUAAAAGCGCCAGAACUACAGAAAUGUAGUUGACGAGGAGGGGGUUUAUCGAAUUUUCGGCGGAUGCCUACAAA [A42G C70A] >= 0.0003 s⁻¹?
Result string: 1

Query string: Hello, I need to know if AUAAAAUCGCCAGAACUACAGAAAUGUAGUUGACUAGGAGGAGGUUUAUCGAAUUUUCGGCGGAUGCCUCCAAA [G7U G35U] has measured self-cleavage kobs at 2500 uM GlcN6P not below 0.0003 s⁻¹. Thanks!
Result string: 0

Query string: Answer whether self-cleavage kobs at 2500 uM GlcN6P of AUAAAAGCGCCAGAACUACAGAAAUGUAGUUGACGAGGAGGAGGUAUAUCGAAUUUUCGGCGGAUGCGUCCAAA [U46A C68G] is greater than or equal to 0.0003 s⁻¹.
Result string: 0

Query string: Kindly determine if self-cleavage kobs at 2500 uM GlcN6P recorded for AUAAAAGCGCCAUAACUACAGAAAUGUAGUUGACGAGGAGGAGGUUUAUCGAAUUUCCGGCGGAUGCCUCCAAA [G13U U57C] is above or exactly 0.0003 s⁻¹.
Result string: 0
